Data origin: the supplement of paper PMC10307832

Collected relative viability values appear next to each entry.
# Test system: NCI-H441
# assayNotes: relative viability (nuclei count vs DMSO), 5 days (fraction); higher = more cells survive
# assaySetup: first compound 50 µM
Response field accepts a number only; no unit should be typed.

Consider the worked cases shown below.
>>> reading("O=C(O)CCCCC(CCSCc1ccccc1)SCc1ccccc1 (stereo not given) [CPI-613] + C[C@]1(O)C[C@@H](c2nc(-c3ccc4ccc(-c5ccccc5)nc4c3)c3c(N)nccn32)C1 [Linsitinib] (partner 1 µM)")
0.605
>>> reading("O=C(O)CCCCC(CCSCc1ccccc1)SCc1ccccc1 (stereo not given) [CPI-613] + O=C(c1cc(Cc2n[nH]c(=O)c3ccccc23)ccc1F)N1CCN(C(=O)C2CC2)CC1 [Olaparib] (partner 8 µM)")
0.596
>>> reading("O=C(O)CCCCC(CCSCc1ccccc1)SCc1ccccc1 (stereo not given) [CPI-613] + CC(=O)c1c(C)c2cnc(Nc3ccc(N4CCNCC4)cn3)nc2n(C2CCCC2)c1=O [Palbociclib] (partner 0.5 µM)")
0.18
>>> reading("O=C(O)CCCCC(CCSCc1ccccc1)SCc1ccccc1 (stereo not given) [CPI-613] + Cc1nc(Nc2ncc(C(=O)Nc3c(C)cccc3Cl)s2)cc(N2CCN(CCO)CC2)n1 [Dasatinib] (partner 0.075 µM)")
0.484

Here's the next entry for you.
Q: Any idea what its relative viability is? The compound is O=C(O)CCCCC(CCSCc1ccccc1)SCc1ccccc1 (stereo not given) [CPI-613] + CC1(C)CCC(c2ccc(Cl)cc2)=C(CN2CCN(c3ccc(C(=O)NS(=O)(=O)c4ccc(N[C@H](CCN5CCOCC5)CSc5ccccc5)c(S(=O)(=O)C(F)(F)F)c4)cc3)CC2)C1 [Navitoclax] (partner 0.5 µM)
A: 0.731

* * *

Collected relative viability values appear next to each entry.
# Test system: NCI-H2087
# assayNotes: relative viability (nuclei count vs DMSO), 5 days (fraction); higher = more cells survive
# assaySetup: first compound 5 µM

Consider the worked cases shown below.
>>> reading("O=C(O)CCCCC(CCSCc1ccccc1)SCc1ccccc1 (centres undefined) [CPI-613] + CS(=O)(=O)N1CCN(Cc2cc3nc(-c4cccc5[nH]ncc45)nc(N4CCOCC4)c3s2)CC1 [Pictilisib] (partner 1 µM)")
0.87
>>> reading("O=C(O)CCCCC(CCSCc1ccccc1)SCc1ccccc1 (centres undefined) [CPI-613] + Cc1nc(Nc2ncc(C(=O)Nc3c(C)cccc3Cl)s2)cc(N2CCN(CCO)CC2)n1 [Dasatinib] (partner 0.075 µM)")
0.809
>>> reading("O=C(O)CCCCC(CCSCc1ccccc1)SCc1ccccc1 (centres undefined) [CPI-613] + CC(=O)c1c(C)c2cnc(Nc3ccc(N4CCNCC4)cn3)nc2n(C2CCCC2)c1=O [Palbociclib] (partner 0.5 µM)")
0.253

Q: Any idea what its relative viability is? The compound is O=C(O)CCCCC(CCSCc1ccccc1)SCc1ccccc1 (centres undefined) [CPI-613] + Nc1nc2[nH]cc(CCc3ccc(C(=O)N[C@@H](CCC(=O)O)C(=O)O)cc3)c2c(=O)[nH]1 [Pemetrexed] (partner 0.2 µM)
A: 0.642

* * *

Collected relative viability values appear next to each entry.
# System: NCI-H727
# assayNotes: relative viability (nuclei count vs DMSO), 5 days (fraction); higher = more cells survive
# assaySetup: first compound 0.01581 µM
Response field accepts a number only; no unit should be typed.

Consider the worked cases shown below.
>>> reading("Nc1ccn([C@@H]2O[C@H](CO)[C@@H](O)[C@@H]2O)c(=O)n1 [Cytarabine] + O=C(CCCCCCC(=O)Nc1ccccc1)NO [Vorinostat] (partner 1 µM)")
1.16
>>> reading("Nc1ccn([C@@H]2O[C@H](CO)[C@@H](O)[C@@H]2O)c(=O)n1 [Cytarabine] + Cc1nc(NC(=O)N2CCC[C@H]2C(N)=O)sc1-c1ccnc(C(C)(C)C(F)(F)F)c1 [Alpelisib] (partner 2 µM)")
0.505

Q: Any idea what its relative viability is? The compound is COc1cc2nccc(Oc3ccc(NC(=O)Nc4cc(C)on4)c(Cl)c3)c2cc1OC [Tivozanib] + Cc1nc(Nc2ncc(C(=O)Nc3c(C)cccc3Cl)s2)cc(N2CCN(CCO)CC2)n1 [Dasatinib] (partner 0.075 µM)
A: 0.33

Q: Any idea what its relative viability is? The compound is COc1cc2nccc(Oc3ccc(NC(=O)Nc4cc(C)on4)c(Cl)c3)c2cc1OC [Tivozanib] + CCNC(=O)c1noc(-c2cc(C(C)C)c(O)cc2O)c1-c1ccc(CN2CCOCC2)cc1 [Luminespib] (partner 0.01 µM)
A: 0.59
